biological target: A3 adenosine receptor (Homo sapiens); assay: Binding assay at A3 adenosine receptor (Table 7)
Sequence (P0DMS8 whole entry): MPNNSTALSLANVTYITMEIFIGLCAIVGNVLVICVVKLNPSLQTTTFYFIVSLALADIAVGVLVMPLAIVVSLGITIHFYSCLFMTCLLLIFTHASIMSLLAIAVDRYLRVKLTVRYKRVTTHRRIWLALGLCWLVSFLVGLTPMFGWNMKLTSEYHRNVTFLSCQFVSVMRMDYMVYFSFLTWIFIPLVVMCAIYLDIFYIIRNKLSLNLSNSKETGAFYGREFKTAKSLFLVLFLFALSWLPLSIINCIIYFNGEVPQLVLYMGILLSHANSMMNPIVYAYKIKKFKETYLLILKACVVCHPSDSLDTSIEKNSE
Parameter: Ki

q: Give Ki for NCCNCCNC(=O)Cc1ccc(NC(=O)Cc2ccc(Nc3ncnc4c3ncn4[C@@H]3O[C@H](CO)[C@@H](O)[C@H]3O)cc2)cc1
a: 10 nM

* * *

target: UniProt:P30542
Sequence (P30542 whole entry): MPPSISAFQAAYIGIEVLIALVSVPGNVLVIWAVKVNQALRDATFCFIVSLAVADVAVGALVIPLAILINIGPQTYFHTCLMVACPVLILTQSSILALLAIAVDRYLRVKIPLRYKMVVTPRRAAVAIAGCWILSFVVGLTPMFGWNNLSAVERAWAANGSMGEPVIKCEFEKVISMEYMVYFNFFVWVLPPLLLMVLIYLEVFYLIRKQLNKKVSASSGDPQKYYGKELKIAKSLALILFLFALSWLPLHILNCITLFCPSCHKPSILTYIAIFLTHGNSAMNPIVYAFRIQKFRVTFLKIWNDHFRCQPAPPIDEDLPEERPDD
Parameter: Ki

q: Please look at O=C(O)CCc1ccc(NC(=S)NCCNC(=O)Cc2ccc(NC(=O)Cc3ccc(Nc4ncnc5c4ncn5[C@@H]4O[C@H](CO)[C@@H](O)[C@H]4O)cc3)cc2)cc1 and tell me its recorded Ki on UniProt:P30542.
a: 30 nM

q: Please look at NCCNC(=O)Cc1ccc(NC(=O)Cc2ccc(Nc3ncnc4c3ncn4[C@@H]3O[C@H](CO)[C@@H](O)[C@H]3O)cc2)cc1 [compound 101, reference compound] and tell me its recorded Ki on UniProt:P30542.
a: 10.4 nM

q: Please look at NCCNCCNC(=O)Cc1ccc(NC(=O)Cc2ccc(Nc3ncnc4c3ncn4[C@@H]3O[C@H](CO)[C@@H](O)[C@H]3O)cc2)cc1 and tell me its recorded Ki on UniProt:P30542.
a: 43 nM

The measurements presented in this section are drawn from patent US8153781B2.
